Values compiled from ChEMBL document CHEMBL4888484.

- Test system: Plasmodium falciparum
- ASSAY_SUMMARY: Confirmatory screen in NF54 nanoGlo assay, in single point, at 2uM, 72h
- Format: functional, Erythrocyte
- RECORDED_CONDITIONS: timepoint 72 hour
About 420 (8.8%) of roughly 4,800 compounds showed an effect of 50% or more. Shown is part of a subset that was picked to be rich in strong results.
MEASURED_ATTRIBUTE: % Inhibition (%)
Number in %, nothing else.

Use these answered entries as a reference point.
COc1ccc(CNc2nc(-c3nnc(-c4ccccc4)o3)nc3ccccc23)cc1
55
COc1ccc2oc(-c3ccc(CNC(=O)c4ccccc4)cc3)nc2c1
-5

**Q:** Fill in the recorded % Inhibition for this molecule, with Plasmodium falciparum as test system: `Cc1nn(CCc2nnc(-c3ccc4c(c3)OCO4)o2)c(C)c1Cl`
**A:** -3

**Q:** Can you check `CCC(C)(C)c1ccc(OCC(=O)Nc2cccc(C(=O)CC(=O)Nc3ccc(Oc4ccccc4)cc3)c2)c(C(C)(C)CC)c1` next?
**A:** -4

**Q:** Can you check CC(NCCn1cccn1)C(=O)N1c2ccccc2CC1C (stereo unspecified) next?
**A:** -10

**Q:** Can you check `O=C(COc1ccccc1)Nc1ccc2c(c1)C(O)=Nc1cccnc1O2` next?
**A:** 58

**Q:** Can you check `O=C(Cc1cc(F)c(F)cc1F)N1CCOC[C@H]1c1ncon1` next?
**A:** -3

----------
Collected % Inhibition values appear next to each entry.
- System: Plasmodium falciparum
- ASSAY_SUMMARY: Confirmatory screen in NF54 nanoGlo assay, in single point, at 2uM, 72h
- Type: functional, Erythrocyte
- RECORDED_CONDITIONS: timepoint 72 hour
The campaign covered roughly 4,800 compounds. About 420 (8.8%) showed an effect of 50% or more. What follows is part of a selection rich in strong results, with near analogues and random picks from the rest.
Number in %, nothing else.

COc1ccc(-c2nc(N)s[n+]2-c2ccccc2)cc1
-2
OC(CNC1CCCNc2ccccc21)c1ccc(Cl)s1 (centres undefined)
58
CN(Cc1ccccc1)c1nc2ncn(CC(=O)NC3CCCCC3)c(=O)c2s1
-17
c1ccc(N2CCN(C3CCN(Cc4ccncc4)CC3)CC2)cc1
-6
O=C(Nc1ccccc1)c1ccc2c(c1)C(=O)N(CCc1ccccc1)C2=O
-9
COc1cc(OC)cc(C(=O)Nc2ccc3nc(N4CCC(C)CC4)cc(C)c3c2)c1
47
c1ccc2oc(N3CCCCCCC3)nc2c1
-5
CCN(CC)c1ccc(C(=O)Nc2ccc3nc(N4CCCC4)cc(C)c3c2)cc1
85

**Q:** Fill in the recorded % Inhibition for this molecule, with Plasmodium falciparum as test system: `Nc1nccnc1C(=O)NCc1ccc(Cn2ccnc2)cc1`
**A:** -5

**Q:** Can you check O=C(NCCc1cc(F)cc(F)c1)C1CC2CCC1C2 (centres undefined) next?
**A:** 0

**Q:** Can you check `COc1ccc(-c2nnc(COc3ccc(-c4ccccc4)cc3)s2)cc1` next?
**A:** -7

**Q:** Can you check `Cc1cccc(NC(=O)N2CCCCCC2)n1` next?
**A:** 1

**Q:** Can you check `Cc1ccc2c(c1)[C@@H](O)C[C@@H](C)N2C(=O)c1ccco1` next?
**A:** -7

**Q:** Can you check `O=C(NCc1cccc(Br)c1)c1ccc(Cl)c(-n2cnc3cccnc32)c1` next?
**A:** -1
